- measured on: ATP-dependent translocase ABCB1 (Homo sapiens, UniProt P08183)
- Sequence (P08183 whole entry): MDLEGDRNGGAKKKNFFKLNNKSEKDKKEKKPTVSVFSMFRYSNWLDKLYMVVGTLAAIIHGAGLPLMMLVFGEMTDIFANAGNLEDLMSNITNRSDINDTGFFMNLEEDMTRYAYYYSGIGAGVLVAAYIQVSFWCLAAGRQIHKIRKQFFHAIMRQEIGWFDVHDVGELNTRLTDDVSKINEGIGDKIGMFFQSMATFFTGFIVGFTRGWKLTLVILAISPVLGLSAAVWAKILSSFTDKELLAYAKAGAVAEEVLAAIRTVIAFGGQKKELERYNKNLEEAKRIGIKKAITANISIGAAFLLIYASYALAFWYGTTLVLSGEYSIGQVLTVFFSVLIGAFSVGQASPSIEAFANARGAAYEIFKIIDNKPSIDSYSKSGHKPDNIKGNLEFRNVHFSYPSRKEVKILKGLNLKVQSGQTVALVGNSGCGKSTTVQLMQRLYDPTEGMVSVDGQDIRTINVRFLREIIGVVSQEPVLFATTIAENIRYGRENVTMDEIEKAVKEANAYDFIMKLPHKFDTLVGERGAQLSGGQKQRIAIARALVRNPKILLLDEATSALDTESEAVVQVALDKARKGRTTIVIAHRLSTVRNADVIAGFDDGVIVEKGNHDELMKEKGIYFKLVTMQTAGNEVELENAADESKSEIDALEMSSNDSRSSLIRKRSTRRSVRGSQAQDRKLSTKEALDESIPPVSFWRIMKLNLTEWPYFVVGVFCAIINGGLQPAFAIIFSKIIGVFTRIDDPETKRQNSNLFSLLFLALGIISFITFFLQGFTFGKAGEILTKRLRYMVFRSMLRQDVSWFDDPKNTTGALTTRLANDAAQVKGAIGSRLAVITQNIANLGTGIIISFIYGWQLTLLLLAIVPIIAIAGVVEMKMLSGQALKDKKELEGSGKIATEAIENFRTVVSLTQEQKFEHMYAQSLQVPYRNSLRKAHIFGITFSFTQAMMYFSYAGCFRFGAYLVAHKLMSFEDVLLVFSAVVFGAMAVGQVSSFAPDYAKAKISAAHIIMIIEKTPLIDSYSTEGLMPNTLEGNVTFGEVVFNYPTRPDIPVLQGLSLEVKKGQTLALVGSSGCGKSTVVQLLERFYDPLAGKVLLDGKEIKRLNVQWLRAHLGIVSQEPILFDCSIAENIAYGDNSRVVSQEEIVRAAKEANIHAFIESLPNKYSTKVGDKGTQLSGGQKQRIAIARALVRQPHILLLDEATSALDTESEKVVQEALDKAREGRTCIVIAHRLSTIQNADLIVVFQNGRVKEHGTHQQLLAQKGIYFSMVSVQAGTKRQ
- procedure details: Inhibition of P-gp in human Caco-2 cells in presence of paclitaxel
- Assay type: cell-based
pIC50: −log10 of the molar value.
measured attribute: pIC50

(a) COc1cc(NC(=O)c2cc(=O)c3ccccc3o2)c(C(=O)Nc2ccc(C3CCN(Cc4cccc(-n5ccnc5)c4)CC3)cc2)cc1OC
(b) COc1cc2c(cc1OC)CN(CCc1ccc(NC(=O)c3cc(OC)c(OC)cc3NC(=O)c3cnc4ccccc4c3)cc1)CC2
Inquiry: Sorting ascending by pIC50, which comes first: a or b ? Record your answer as the label of the chosen record.
Reply text: b

====

- procedure details: Apparent permeability of compound across apical to basolateral side in human Caco-2 cells
- Format: ADME, cell-based
measured attribute: Papp A→B (×10⁻⁶ cm/s)

Sample records with Papp A→B:
INSERT INTO measurements (compound, uom, measured_result) VALUES
  ('C[C@H]1O[C@@H](O[C@H]2[C@@H](O)C[C@H](O[C@H]3[C@@H](O)C[C@H](O[C@H]4CC[C@@]5(C)[C@H](CC[C@@H]6[C@@H]5C[C@@H](O)[C@]5(C)[C@@H](C7=CC(=O)OC7)CC[C@]65O)C4)O[C@@H]3C)O[C@@H]2C)C[C@H](O)[C@@H]1O [DIGOXIN]', '×10⁻⁶ cm/s', 0.98),
  ('COc1cc(NC(=O)c2cnc3ccccc3c2)c(C(=O)Nc2ccc(C3CCN(Cc4cccc(-n5ccnc5)c4)CC3)cc2)cc1OC', '×10⁻⁶ cm/s', 0.55);

(1) COc1cc(NC(=O)c2cc(=O)c3ccccc3o2)c(C(=O)Nc2ccc(N3CCN(Cc4cccc(-c5cccnc5)c4)CC3)cc2)cc1OC
(2) CC(=O)O[C@H]1C(=O)[C@@]2(C)[C@H]([C@H](OC(=O)c3ccccc3)[C@]3(O)C[C@H](OC(=O)[C@H](O)[C@@H](NC(=O)c4ccccc4)c4ccccc4)C(C)=C1C3(C)C)[C@]1(OC(C)=O)CO[C@@H]1C[C@@H]2O [PACLITAXEL]
(3) COc1cc(NC(=O)c2cnc3ccccc3c2)c(C(=O)Nc2ccc(N3CCN(Cc4cccc(-c5cccnc5)c4)CC3)cc2)cc1OC
(4) COc1cc(NC(=O)c2cnc3ccccc3c2)c(C(=O)Nc2ccc(N3CCN(Cc4cccc(-n5ccnc5)c4)CC3)cc2)cc1OC
Inquiry: Please rank these compounds by Papp A→B in descending order. Thanks in advance for listing the labels in the requested order.
Reply text: 3, 2, 4, 1
(3: 1.29 ×10⁻⁶ cm/s, 2: 0.41 ×10⁻⁶ cm/s, 4: 0.17 ×10⁻⁶ cm/s, 1: 0.06 ×10⁻⁶ cm/s)

====

- measured on: Cytochrome P450 3A4 (Homo sapiens)
- procedure details: Inhibition of CYP3A4 in human Hepatocyte using Luciferin-IPA as substrate
- Format: ADME, cell-based
pIC50: −log10 of the molar value.
measured attribute: pIC50

Sample records with pIC50:
INSERT INTO assay_data (smiles_string, measured_attribute, measured_result) VALUES
  ('COc1cc(NC(=O)c2cnc3ccccc3c2)c(C(=O)Nc2ccc(C3CCN(Cc4ccc5c(c4)OCO5)CC3)cc2)cc1OC', 'pIC50', 5.05),
  ('COc1cc(NC(=O)c2cc(=O)c3ccccc3o2)c(C(=O)Nc2ccc(N3CCN(Cc4cccc(-c5ccncc5)c4)CC3)cc2)cc1OC', 'pIC50', 5.79),
  ('COc1cc(NC(=O)c2cnc3ccccc3c2)c(C(=O)Nc2ccc(N3CCN(Cc4cccc(-n5ccnc5)c4)CC3)cc2)cc1OC', 'pIC50', 5.72),
  ('O=C(Nc1ccccc1C(=O)Nc1ccc(N2CCN(Cc3cccc(-c4cccnc4)c3)CC2)cc1)c1cc(=O)c2ccccc2o1', 'pIC50', 5.73),
  ('COc1cc(NC(=O)c2cc(=O)c3ccccc3o2)c(C(=O)Nc2ccc(C3CCN(Cc4ccc5c(c4)OCO5)CC3)cc2)cc1OC', 'pIC50', 5.19),
  ('COc1cc(NC(=O)c2cc(=O)c3ccccc3o2)c(C(=O)Nc2ccc(N3CCN(Cc4cccc(-n5ccnc5)c4)CC3)cc2)cc1OC', 'pIC50', 5.62);

(a) COc1cc(NC(=O)c2cnc3ccccc3c2)c(C(=O)Nc2ccc(N3CCN(Cc4cccc(-c5ccncc5)c4)CC3)cc2)cc1OC
(b) COc1cc(NC(=O)c2cnc3ccccc3c2)c(C(=O)Nc2ccc(C3CCN(Cc4ccc5c(cnn5C)c4)CC3)cc2)cc1OC
(c) COc1cc(NC(=O)c2cc(=O)c3ccccc3o2)c(C(=O)Nc2ccc(N3CCN(Cc4cccc(-n5cncn5)c4)CC3)cc2)cc1OC
Inquiry: Please order the records by their reported pIC50, lowest number first. Thanks in advance for listing the labels in the requested order.
Reply text: b, a, c

====

- procedure details: Equilibrium solubility of compound in PBS at pH 7.4
- Type: physicochemical
- run conditions: PBS
measured attribute: solubility thermodynamic (µM)

INSERT INTO assay_data (smiles_string, measured_attribute, measured_result) VALUES
  ('COc1cc(NC(=O)c2cc(=O)c3ccccc3o2)c(C(=O)Nc2ccc(C3CCN(Cc4cccc(-n5ccnc5)c4)CC3)cc2)cc1OC', 'solubility thermodynamic', 0.57);

(1) COc1cc2c(cc1OC)CN(CCc1ccc(NC(=O)c3cc(OC)c(OC)cc3NC(=O)c3cnc4ccccc4c3)cc1)CC2
(2) COc1cc(NC(=O)c2cnc3ccccc3c2)c(C(=O)Nc2ccc(N3CCN(Cc4cccc(-n5ccnc5)c4)CC3)cc2)cc1OC
Inquiry: Identify the entry with the larger solubility thermodynamic. Options: 1 and 2 Record your answer as the label of the chosen record.
Reply text: 1

====

- measured on: P-gp (ABCB1) (Homo sapiens, UniProt P08183)
- Sequence (P08183 whole entry): as above
- procedure details: Inhibition of P-gp in human Caco-2 cells at 1 uM in presence of paclitaxel relative to control
- Assay type: cell-based
- run conditions: Caco-2, probe paclitaxel
measured attribute: inhibition at 1 µM (%)

INSERT INTO results (smiles_string, measured_attribute, uom, measured_result) VALUES
  ('COc1cc2c(cc1OC)CN(CCc1ccc(NC(=O)c3cc(OC)c(OC)cc3NC(=O)c3cnc4ccccc4c3)cc1)CC2', 'inhibition at 1 µM', '%', 92),
  ('COc1cc(NC(=O)c2cc(=O)c3ccccc3o2)c(C(=O)Nc2ccc(C3CCN(Cc4cccc(-n5ccnc5)c4)CC3)cc2)cc1OC', 'inhibition at 1 µM', '%', 97);

====

- measured on: Cytochrome P450 1A2 (Homo sapiens)
- Sequence (P05177 whole entry): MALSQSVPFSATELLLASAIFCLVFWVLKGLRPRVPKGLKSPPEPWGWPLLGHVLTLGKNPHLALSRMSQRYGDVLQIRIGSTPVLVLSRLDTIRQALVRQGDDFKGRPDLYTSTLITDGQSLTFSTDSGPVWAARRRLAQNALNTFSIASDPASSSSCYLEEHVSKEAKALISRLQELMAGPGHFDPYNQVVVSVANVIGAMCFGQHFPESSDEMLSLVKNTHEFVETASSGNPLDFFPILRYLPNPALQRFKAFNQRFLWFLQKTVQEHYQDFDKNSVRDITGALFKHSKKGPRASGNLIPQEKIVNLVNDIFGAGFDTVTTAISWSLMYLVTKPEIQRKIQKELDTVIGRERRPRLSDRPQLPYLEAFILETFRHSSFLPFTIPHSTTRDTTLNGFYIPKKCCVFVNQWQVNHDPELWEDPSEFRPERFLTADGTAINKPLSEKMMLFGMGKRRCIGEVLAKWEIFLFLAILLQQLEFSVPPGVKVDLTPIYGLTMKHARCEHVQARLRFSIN
pIC50: −log10 of the molar value.
measured attribute: pIC50

Item: `COc1cc(NC(=O)c2cc(=O)c3ccccc3o2)c(C(=O)Nc2ccc(C3CCN(Cc4cccc(-n5ccnc5)c4)CC3)cc2)cc1OC` | System: Cytochrome P450 1A2 (Homo sapiens) | pIC50: < 4.00

====

- measured on: Cytochrome P450 2C19 (Homo sapiens, UniProt P33261)
- Sequence (P33261 whole entry): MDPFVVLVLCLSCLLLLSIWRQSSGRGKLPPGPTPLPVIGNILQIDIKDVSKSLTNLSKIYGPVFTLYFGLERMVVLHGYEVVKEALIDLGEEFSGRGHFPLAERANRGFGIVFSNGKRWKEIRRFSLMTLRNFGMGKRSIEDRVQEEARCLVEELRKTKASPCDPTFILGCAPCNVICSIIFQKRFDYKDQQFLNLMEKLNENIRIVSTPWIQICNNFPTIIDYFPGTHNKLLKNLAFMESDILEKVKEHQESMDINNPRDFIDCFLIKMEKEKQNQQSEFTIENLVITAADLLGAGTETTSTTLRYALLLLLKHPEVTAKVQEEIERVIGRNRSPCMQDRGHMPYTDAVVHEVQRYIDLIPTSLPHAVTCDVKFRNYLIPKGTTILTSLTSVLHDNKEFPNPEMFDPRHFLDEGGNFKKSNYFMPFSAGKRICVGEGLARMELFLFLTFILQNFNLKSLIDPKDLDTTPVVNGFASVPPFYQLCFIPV
measured attribute: IC50 (µM)
Unit µM implied. Number only.

Item: `COc1cc(NC(=O)c2cc(=O)c3ccccc3o2)c(C(=O)Nc2ccc(C3CCN(Cc4cccc(-n5ccnc5)c4)CC3)cc2)cc1OC` | System: Cytochrome P450 2C19 (Homo sapiens, UniProt P33261) | IC50: 39

====

- measured on: Cytochrome P450 3A4 (Homo sapiens)
- procedure details: Inhibition of CYP3A4 in human liver using luciferin-IPA as substrate microsome preincubated with compound for 10 mins followed by NADPH addition and measured after 5 mins
- Type: ADME, microsomes
measured attribute: IC50 (nM)

Sample records with IC50:
INSERT INTO results (smiles_string, measured_result) VALUES
  ('COc1cc(NC(=O)c2cc(=O)c3ccccc3o2)c(C(=O)Nc2ccc(N3CCN(Cc4cccc(-c5cccnc5)c4)CC3)cc2)cc1OC', 339),
  ('COc1cc(NC(=O)c2cc(=O)c3ccccc3o2)c(C(=O)Nc2ccc(N3CCN(Cc4ccc5c(c4)OCO5)CC3)cc2)cc1OC', 1640);

(a) COc1cc(NC(=O)c2cnc3ccccc3c2)c(C(=O)Nc2ccc(N3CCN(Cc4cccc(-n5cncn5)c4)CC3)cc2)cc1OC
(b) COc1cc(NC(=O)c2cnc3ccccc3c2)c(C(=O)Nc2ccc(C3CCN(Cc4ccc5c(cnn5C)c4)CC3)cc2)cc1OC
(c) O=C(Nc1ccccc1C(=O)Nc1ccc(N2CCN(Cc3cccc(-c4cccnc4)c3)CC2)cc1)c1cc(=O)c2ccccc2o1
(d) COc1cc(NC(=O)c2cc(=O)c3ccccc3o2)c(C(=O)Nc2ccc(C3CCN(Cc4ccc5c(cnn5C)c4)CC3)cc2)cc1OC
(e) COc1cc(NC(=O)c2cnc3ccccc3c2)c(C(=O)Nc2ccc(N3CCN(Cc4ccc5c(c4)OCO5)CC3)cc2)cc1OC
Inquiry: Please order the records by their reported IC50, lowest number first. Thanks in advance for listing the labels in the requested order.
Reply text: a, c, d, e, b
(a: 245 nM, c: 399 nM, d: 1180 nM, e: 2110 nM, b: 3820 nM)
